- METHOD: Selectivity index, ratio of CC50 for cytotoxicity against human iPSC-lung cells to EC50 for antiviral activity against SARS CoV-2 USA-WA1/2020 infected in human iPSC-lung cells
- Type: toxicity, cell-based
- CONDITION: read-out: Ratio CC50/EC50
REPORTED PROPERTY: selectivity ratio

Task item: If you can, please state the reported selectivity ratio value of `CCCCCCCC/C=C\CCCCCCCCOC[C@H](COP(=O)(O)OC[C@H]1O[C@@](C#N)(c2ccc3c(N)ncnn23)[C@H](O)[C@@H]1O)OCc1ccc(OC)c(F)c1` .
Reply: > 243

Task item: If you can, please state the reported selectivity ratio value of `CCCCCCCC/C=C\CCCCCCCCOC[C@H](COP(=O)(O)OC[C@H]1O[C@@](C#N)(c2ccc3c(N)ncnn23)[C@H](O)[C@@H]1O)OCc1ccccc1` .
Reply: > 74

Task item: If you can, please state the reported selectivity ratio value of `CCCCCCCCCCCCCCCCCCOC[C@H](COP(=O)(O)OC[C@H]1O[C@@](C#N)(c2ccc3c(N)ncnn23)[C@H](O)[C@@H]1O)OCc1ccc(OC)c(F)c1` .
Reply: > 119

Task item: If you can, please state the reported selectivity ratio value of `CCCCCCCCCCCCCCCCOC[C@H](COP(=O)(O)OC[C@H]1O[C@@](C#N)(c2ccc3c(N)ncnn23)[C@H](O)[C@@H]1O)OCc1ccc(OC)c(F)c1` .
Reply: > 153

Source listed as ChEMBL document CHEMBL5380858.
